measurement conditions: buffer, pH 7.4;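 note: logD at pH 7.4 derived from a chromatographic hydrophobicity index measured by reversed-phase HPLC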
reported property: logD

compound	quantitative readout
Nc1c(C(=O)Nc2ccccc2)nnn1Cc1ccc(CN2CCOCC2)cc1	2
Nc1c(-c2nc(C3CCOCC3)no2)nnn1Cc1ccc(CN2CCOCC2)cc1	1.3
COc1cccc(NC(=O)c2nnn(Cc3ccncc3)c2N)c1	1.4
COc1cccc(NC(=O)c2nnn(Cc3ccc(C(C)C)cc3)c2N)c1	3.4
Nc1c(-c2nc(C3CCC(O)CC3)no2)nnn1Cc1ccc(CN2CCOCC2)cc1 (stereo unspecified)	0.9

[I] COc1cccnc1-c1noc(-c2nnn(Cc3ccc(CN4CCOCC4)cc3)c2N)n1
[II] COc1cc(NC(=O)c2nnn(Cc3ccc(CN4CCOCC4)cc3)c2N)nc(OC)n1
Endpoint returns whichever of I and II has the numerically higher logD. Kindly state the label of the option you pick.
II
(II: 2.1, I: 1)
